Test system: Oocyte
Assay: Percentage opening of human Maxi-K channel in transfected oocyte cells at 20 uM
Type: cell-based
measured_attribute: Activity
Record the result as number plus unit.

For orientation, consider the following solved cases.
O=C(CCN1CCN(CCO)CC1)CSc1c(O)nc2ccc(C(F)(F)F)cc2c1-c1cc(Cl)ccc1O    241%
Oc1ccc(Cl)cc1-c1c(SCC(O)CN2CCOCC2)c(O)nc2ccc(C(F)(F)F)cc12 (configuration not stated)    292%
O=S(=O)(Nc1ccc(Sc2c(O)nc3ccc(C(F)(F)F)cc3c2-c2cc(Cl)ccc2O)cc1)C(F)(F)F    277%

Task item: Give Activity for COc1ccc(Cl)cc1-c1c(SCC(O)CN2CCC(C)CC2)c(O)nc2ccc(C(F)(F)F)cc12 (configuration not stated)
Reply: 115%

Task item: Give Activity for "O=C(CSc1c(O)nc2ccc(C(F)(F)F)cc2c1-c1cc(Cl)ccc1O)N1CCN(CCO)CC1"
Reply: 151%

Task item: Give Activity for "CCOC(=O)CN1CCN(C(=O)CSc2c(O)nc3ccc(C(F)(F)F)cc3c2-c2cc(Cl)ccc2O)CC1"
Reply: 281%

Task item: Give Activity for "CN1CCN(CCC(=O)CSc2c(O)nc3ccc(C(F)(F)F)cc3c2-c2cc(Cl)ccc2O)CC1"
Reply: 550%

Task item: Give Activity for Oc1ccc(Cl)cc1-c1c(SCC(O)CN2CCCC2)c(O)nc2ccc(C(F)(F)F)cc12 (configuration not stated)
Reply: 192%

Task item: Give Activity for CN(CCCN1CCN(C)CC1)CCC(O)CSc1c(O)nc2ccc(C(F)(F)F)cc2c1-c1cc(Cl)ccc1O (configuration not stated)
Reply: 515%

Task item: Give Activity for "O=C(CCN1CCOCC1)Nc1ccc(Sc2c(O)nc3ccc(C(F)(F)F)cc3c2-c2cc(Cl)ccc2O)cc1"
Reply: 453%

Task item: Give Activity for "CC(=O)N1CCN(CCCC(=O)CSc2c(O)nc3ccc(C(F)(F)F)cc3c2-c2cc(Cl)ccc2O)CC1"
Reply: 284%

Task item: Give Activity for "O=C(CCCN1CCC(N2CCCCC2)CC1)Nc1ccc(Sc2c(O)nc3ccc(C(F)(F)F)cc3c2-c2cc(Cl)ccc2O)cc1"
Reply: 268%

Task item: Give Activity for "O=c1[nH]c2ccc(C(F)(F)F)cc2c(-c2cc(Cl)ccc2O)c1CCO"
Reply: 378%

Task item: Give Activity for "COc1ccc(Cl)cc1-c1c(Sc2ccc(NS(=O)(=O)C(F)(F)F)cc2)c(O)nc2ccc(C(F)(F)F)cc12"
Reply: 235%

Task item: Give Activity for COc1ccc(Cl)cc1-c1c(SCC(O)CN2CCC(O)CC2)c(O)nc2ccc(C(F)(F)F)cc12 (configuration not stated)
Reply: 125%

Task item: Give Activity for "CN(C)C1CCN(CC(=O)Nc2ccc(Sc3c(O)nc4ccc(C(F)(F)F)cc4c3-c3cc(Cl)ccc3O)cc2)CC1"
Reply: 292%

Task item: Give Activity for "CN1CCN(CC(=O)Nc2ccc(Sc3c(O)nc4ccc(C(F)(F)F)cc4c3-c3cc(Cl)ccc3O)cc2)CC1"
Reply: 246%
